Each recorded value in this set is attributed to patent US9873704B2.

target: PI3Kδ (Homo sapiens); construct: Full length p110 subunits of PI3k α, β and δ, N-terminally labeled with polyHis tag; polyHis (N); made in house; host or cells: Sf9 insect cells (baculovirus); test: PI3Kδ Alphascreen assay; type: biochemical
reported.metric: log10(Ki) (log10 of the value in µM)
Give log10 of Ki, with Ki taken in µM.

Solved cases (4 shown):
C[C@@H](Nc1ncnc2[nH]cnc12)c1nc2ccc(F)cc2cc1-c1ccccn1; -0.66
N#Cc1c(N)ncnc1NCc1nc2cccc(F)c2cc1-c1cc(F)cc(F)c1; -0.61
COc1c(-c2cc(F)cc(F)c2)c([C@H](C)Nc2ncnc(N)c2C#N)nc2ccc(F)cc12; -1.16
COCCNc1c(-c2ccccc2)c(C(C)Nc2ncnc(N)c2C#N)nc2ccc(F)cc12 (stereo not drawn); -2.87

# batch size: 2; output log10(Ki) per entry
1. C[C@H](Nc1ncnc(N)c1C#N)c1nc2ccc(F)cc2c(C(=O)NC2CC2)c1-c1ccccn1
2. CC(Nc1ccncn1)c1nc2ccc(F)cc2cc1-c1ccccn1 (stereo not drawn)

Result:
1: -2.79; 2: 1.06

###

target: PI3Kδ (Homo sapiens, UniProt O00329); construct: Full length p110 subunits of PI3k α, β and δ, N-terminally labeled with polyHis tag; polyHis (N); made in house; host or cells: Sf9 insect cells (baculovirus); experiment: PI3Kδ Alphascreen assay; assay type: biochemical; conditions: listed as 4-amino-6-(-1-(6-fluoro-4-(((3R)-3-hydroxy-1-pyrrolidinyl)-carbonyl)-3-phenyl-2))
Sequence (O00329 whole entry): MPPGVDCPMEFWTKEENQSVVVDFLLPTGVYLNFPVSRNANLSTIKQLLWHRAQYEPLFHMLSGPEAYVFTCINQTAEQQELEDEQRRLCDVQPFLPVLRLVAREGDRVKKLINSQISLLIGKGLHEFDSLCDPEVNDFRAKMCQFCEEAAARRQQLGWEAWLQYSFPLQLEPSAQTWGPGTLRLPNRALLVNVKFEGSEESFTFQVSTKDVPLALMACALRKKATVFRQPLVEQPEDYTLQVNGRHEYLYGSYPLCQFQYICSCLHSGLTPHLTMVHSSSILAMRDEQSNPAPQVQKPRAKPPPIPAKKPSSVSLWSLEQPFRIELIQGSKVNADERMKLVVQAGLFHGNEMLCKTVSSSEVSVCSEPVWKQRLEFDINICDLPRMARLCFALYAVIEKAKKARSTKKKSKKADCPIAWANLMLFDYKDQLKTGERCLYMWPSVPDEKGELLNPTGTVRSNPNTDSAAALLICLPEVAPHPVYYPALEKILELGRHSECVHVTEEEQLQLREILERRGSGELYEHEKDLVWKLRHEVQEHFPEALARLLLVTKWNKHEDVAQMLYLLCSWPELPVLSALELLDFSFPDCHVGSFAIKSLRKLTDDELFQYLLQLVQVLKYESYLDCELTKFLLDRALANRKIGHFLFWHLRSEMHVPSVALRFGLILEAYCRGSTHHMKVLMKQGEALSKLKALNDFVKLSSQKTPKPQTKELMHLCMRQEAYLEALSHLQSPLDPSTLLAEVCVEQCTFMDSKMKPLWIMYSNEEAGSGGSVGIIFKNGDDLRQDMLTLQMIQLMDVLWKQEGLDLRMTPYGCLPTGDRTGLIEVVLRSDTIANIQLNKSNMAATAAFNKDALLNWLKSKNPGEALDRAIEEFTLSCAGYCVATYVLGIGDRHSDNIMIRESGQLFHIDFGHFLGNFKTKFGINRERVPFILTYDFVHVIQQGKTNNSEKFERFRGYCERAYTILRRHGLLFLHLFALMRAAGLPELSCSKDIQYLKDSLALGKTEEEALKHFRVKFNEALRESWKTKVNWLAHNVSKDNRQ
Sequence (P27986 whole entry partner): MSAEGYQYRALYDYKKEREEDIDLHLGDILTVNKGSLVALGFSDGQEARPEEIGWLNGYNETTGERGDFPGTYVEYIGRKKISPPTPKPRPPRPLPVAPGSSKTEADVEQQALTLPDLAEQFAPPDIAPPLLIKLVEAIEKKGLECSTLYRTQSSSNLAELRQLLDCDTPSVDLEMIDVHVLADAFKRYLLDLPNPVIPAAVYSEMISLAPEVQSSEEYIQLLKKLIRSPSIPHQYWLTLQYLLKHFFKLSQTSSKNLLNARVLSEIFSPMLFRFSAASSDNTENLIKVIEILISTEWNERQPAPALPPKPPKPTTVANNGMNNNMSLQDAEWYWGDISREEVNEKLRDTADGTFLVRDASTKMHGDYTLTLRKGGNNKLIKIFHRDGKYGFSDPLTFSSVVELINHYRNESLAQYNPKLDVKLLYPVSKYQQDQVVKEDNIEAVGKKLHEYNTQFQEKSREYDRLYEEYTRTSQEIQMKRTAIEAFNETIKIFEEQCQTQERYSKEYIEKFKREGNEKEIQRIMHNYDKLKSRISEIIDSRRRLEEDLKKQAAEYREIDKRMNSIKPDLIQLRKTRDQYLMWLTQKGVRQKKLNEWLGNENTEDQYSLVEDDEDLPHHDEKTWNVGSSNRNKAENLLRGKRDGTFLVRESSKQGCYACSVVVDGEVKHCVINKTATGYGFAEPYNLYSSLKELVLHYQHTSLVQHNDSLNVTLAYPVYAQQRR
reported.metric: Ki (nM)
Numbers only, in nM.

Query: Please report the recorded Ki for CC(Nc1ncnc(N)c1C#N)c1nc2ccc(F)cc2c(C(=O)N2CC[C@@H](O)C2)c1-c1ccccc1 (stereo partly shown) .
Result: 5.07

###

target: PI3Kδ (Homo sapiens); construct: Full length p110 subunits of PI3k α, β and δ, N-terminally labeled with polyHis tag; polyHis (N); made in house; host or cells: Sf9 insect cells (baculovirus); assay: PI3Kδ Alphascreen assay; type: biochemical
reported.metric: pKi
One number for each entry, as −log10 of the molar value.

CS(=O)(=O)c1ccccc1-c1cc2cccc(F)c2nc1CNc1ncnc(N)c1C#N; 7.51
CC(Nc1ncnc(N)c1C#N)c1nc2ccc(F)cc2c([S+]([O-])CCO)c1-c1ccccc1 (stereo in doubt); 8.61
CC(Nc1ncnc(N)c1C#N)c1nc2ccc(F)cc2c(C(=O)N2CC[C@H](O)C2)c1-c1ccccc1 (stereo partly drawn); 8.99
C[C@@H](Nc1ncnc(N)c1C#N)c1nc2cccc(C#N)c2cc1-c1ccccn1; 5.58
CC(Nc1ncnc(N)c1C#N)c1nc2ccc(F)cc2c(C(=O)N2CC[C@@H](O)C2)c1-c1ccccc1 (stereo partly drawn); 7.59

# batch size: 4; output pKi per entry
1. N#Cc1c(N)ncnc1NCc1nc2cccc(F)c2cc1-c1ccccc1
2. C[C@@H](Nc1ncnc2[nH]cnc12)c1nc2ccc(F)cc2c(S(C)(=O)=O)c1-c1ccccc1
3. N#Cc1c(N)ncnc1NCc1nc2cccc(F)c2cc1-c1cccc(F)c1
4. CC(Nc1ncnc(N)c1C#N)c1nc2ccc(F)cc2c(N2CCOCC2)c1-c1ccccn1 (stereo not drawn)

Result:
[6.97, 6.39, 6.99, 8.92]

###

target: PI3Kδ (Homo sapiens, UniProt O00329); construct: Full length p110 subunits of PI3k α, β and δ, N-terminally labeled with polyHis tag; polyHis (N); made in house; host or cells: Sf9 insect cells (baculovirus); experiment: PI3Kδ Alphascreen assay; assay type: biochemical
pKi: −log10 of the molar value.
Respond with condition met for pKi values of 8 and above, condition not met for values below.

Query: Test whether the compound CC(Nc1ncnc(N)c1C#N)c1nc2ccc(F)cc2c(S(C)(=O)=O)c1-c1ccccc1 (stereo not drawn) records pKi of 8 or higher.
Result: condition met

Query: Test whether the compound CC(Nc1ncnc(N)c1C#N)c1nc2ccc(F)cc2c(CS(C)(=O)=O)c1-c1ccccc1 (stereo not drawn) records pKi of 8 or higher.
Result: condition met
